# experimentalTarget: MNK2 (Homo sapiens, UniProt Q9HBH9)
# Sequence (Q9HBH9 whole entry): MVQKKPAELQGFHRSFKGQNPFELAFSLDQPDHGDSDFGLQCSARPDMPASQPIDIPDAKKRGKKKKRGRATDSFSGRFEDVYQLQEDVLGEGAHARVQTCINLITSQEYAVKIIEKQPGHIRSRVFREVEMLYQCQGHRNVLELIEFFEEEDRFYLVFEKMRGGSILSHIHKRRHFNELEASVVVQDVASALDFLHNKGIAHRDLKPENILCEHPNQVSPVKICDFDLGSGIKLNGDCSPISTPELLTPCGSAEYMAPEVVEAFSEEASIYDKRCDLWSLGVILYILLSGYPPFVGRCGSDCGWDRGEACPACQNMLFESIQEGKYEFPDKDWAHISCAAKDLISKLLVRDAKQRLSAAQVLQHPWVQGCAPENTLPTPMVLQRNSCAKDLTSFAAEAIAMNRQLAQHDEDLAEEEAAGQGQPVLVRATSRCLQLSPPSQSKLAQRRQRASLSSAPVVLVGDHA
# methodNotes: MNK2 kinase inhibition assay (LANCE Ultra kinase activity assay, PerkinElmer)
# Type: biochemical
# cond: inhibition rate at 1000 nM compound; 100 μM ATP, 60 min, 25° C.; read-out: Inhibitory activity(1 μM) MNK2
# Method: MNK1 and MNK2 kinase inhibition assays were performed using LANCE Ultra kinase activity assay developed by PerkinElmer. […] The ratio of HTRF signals at 615 nm and 665 nm was detected after 60 min of incubation. […]
reportedMetric: inhibition at 1 µM

smilesRecord: O=C(c1ccc(-c2nn3c(-c4ccc(O)cc4)cnc3s2)cc1)N1CCOCC1
experimentalTarget: MNK2 (Homo sapiens, UniProt Q9HBH9)
reportedMetric: inhibition at 1 µM
result: > 75%
--
smilesRecord: CN1CCN(C(=O)c2ccc(-c3nn4c(-c5ccc(C(F)(F)F)cc5)cnc4s3)cc2)CC1
experimentalTarget: MNK2 (Homo sapiens, UniProt Q9HBH9)
reportedMetric: inhibition at 1 µM
result: > 75%
--
smilesRecord: CN(C)C1CCN(C(=O)c2ccc(-c3nn4c(-c5ccc(C(F)(F)F)cc5)cnc4s3)cc2)CC1
experimentalTarget: MNK2 (Homo sapiens, UniProt Q9HBH9)
reportedMetric: inhibition at 1 µM
result: > 75%
--
smilesRecord: O=C(c1ccc(-c2cn3c(-c4ccc(C(F)(F)F)cc4)csc3n2)cc1)N1CCOCC1
experimentalTarget: MNK2 (Homo sapiens, UniProt Q9HBH9)
reportedMetric: inhibition at 1 µM
result: 25 to 50%

Provide only the value of recorded inhibition at 1 µM for COC(=O)c1ccc(-c2cnc3sc(-c4ccc(C(=O)N5CCOCC5)cc4)nn23)cc1
> 75%

Note inhibition at 1 µM for the compound shown: CN(C)C1CCN(C(=O)c2ccc(-c3cn4c(-c5ccc(Cl)cc5)csc4n3)cc2)CC1
25 to 50%

Output measured inhibition at 1 µM for this item: O=C(c1ccc(-c2nn3c(-c4ccc(CO)cc4)cnc3s2)cc1)N1CCOCC1
> 75%

Could you please provide reported inhibition at 1 µM for N#Cc1ccc(-c2cnc3sc(-c4ccc(C(=O)NCCO)cc4)nn23)cc1 ? Thanks!
> 75%

Using the record for O=C(c1ccc(-c2nn3c(-c4ccc(C(F)(F)F)c(F)c4)cnc3s2)cc1)N1CCOCC1 , state its measured inhibition at 1 µM.
> 75%

Identify inhibition at 1 µM associated with the compound N#Cc1ccc(-c2cnc3sc(-c4ccc(C(=O)SCCO)cc4)nn23)cc1
25 to 50%

Give me measured inhibition at 1 µM, please, for this compound: COc1ccc(-c2csc3nc(-c4ccc(C(=O)N5CCOCC5)cc4)cn23)cc1
25 to 50%

Determine from records and report inhibition at 1 µM for CN(C)C1CCN(C(=O)c2ccc(-c3cn4c(-c5ccc(F)cc5)csc4n3)cc2)CC1
25 to 50%

Given the compound CN1CCN(C(=O)c2ccc(-c3nn4c(-c5ccncc5)cnc4s3)cc2)CC1 , write its reported inhibition at 1 µM.
> 75%

Give the value of inhibition at 1 µM reported for the following: CN1CCN(C(=O)c2ccc(-c3cn4c(-c5ccc(C(F)(F)F)cc5)csc4n3)cc2)CC1
25 to 50%

State its inhibition at 1 µM for this compound: CN(C)CCNC(=O)c1ccc(-c2nn3c(-c4ccc(C#N)cc4)cnc3s2)cc1
> 75%

Give the measured inhibition at 1 µM for CN1CCN(C(=O)c2ccc(-c3nn4c(-c5ccc([N+](=O)[O-])cc5)cnc4s3)cc2)CC1
> 75%

Please look at this compound and report its inhibition at 1 µM: CN1CCN(C(=O)c2ccc(-c3nn4c(-c5ccc(C#N)nc5)cnc4s3)cc2)CC1
25 to 50%
